test system: Rattus norvegicus; test: Antiallergic activity in rat assessed as inhibition of egg albumin-induced passive cutaneous anaphylaxis at 0.5 mg/kg, iv treated for 30 secs followed by egg albumin-challenge measured after 30 mins relative to control; type: functional; settings: 0.5 h
Observation type: inhibition in vivo at 0.5 mg/kg (%)
Give the quantity in %, number only.

Guide cases for inhibition in vivo at 0.5 mg/kg, answers given:
[[record]]
chemical_structure = "CC(=O)C1=C(O)/C(=C(\\C)N2CCOCC2)C(=O)OC1=O"
unit_info = "%"
val = 2

[[record]]
chemical_structure = "CC(=O)Nc1ccccc1N/C(C)=C1\\C(=O)OC(=O)C(C(C)=O)=C1O"
unit_info = "%"
val = -12

[[record]]
chemical_structure = "CC(=O)C1=C(O)/C(=C(\\C)Nc2c(O)cccc2O)C(=O)OC1=O"
unit_info = "%"
val = -22

[[record]]
chemical_structure = "CC(=O)C1=C(O)/C(=C(\\C)Nc2cc(NS(=O)(=O)c3ccccc3)cc(NS(=O)(=O)c3ccccc3)c2)C(=O)OC1=O"
unit_info = "%"
val = -9

[[record]]
chemical_structure = "CC(=O)C1=C(O)/C(=C(\\C)Nc2cccc(NC(=O)C(C)C)c2)C(=O)OC1=O"
unit_info = "%"
val = 72


### Prompt Form field: reported inhibition in vivo at 0.5 mg/kg of CC(=O)Nc1ccc(O)c(N/C(C)=C2\C(=O)OC(=O)C(C(C)=O)=C2O)c1
### Response 40

### Prompt Endpoint output: inhibition in vivo at 0.5 mg/kg of CC(=O)C1=C(O)/C(=C(\C)Nc2ccc(OC(=O)C(C)(C)C)cc2)C(=O)OC1=O . Value?
### Response 3

### Prompt // query inhibition in vivo at 0.5 mg/kg value for entry CC(=O)C1=C(O)/C(=C(\C)Nc2cccc(NC=O)c2)C(=O)OC1=O
### Response 22

### Prompt So what's the measured inhibition in vivo at 0.5 mg/kg for this one? CC(=O)C1=C(O)/C(=C(\C)Nc2cccc(N3C(=O)CCC3=O)c2)C(=O)OC1=O
### Response 22

### Prompt Entry CNC(=O)c1cccc(N/C(C)=C2\C(=O)OC(=O)C(C(C)=O)=C2O)c1 : reported inhibition in vivo at 0.5 mg/kg = ?
### Response 24

### Prompt Query: inhibition in vivo at 0.5 mg/kg; subject: CC(=O)C1=C(O)/C(=C(\C)Nc2ccc(NC=O)cc2)C(=O)OC1=O
### Response 49

### Prompt Reported inhibition in vivo at 0.5 mg/kg for CCC(=O)Oc1ccc(N/C(C)=C2\C(=O)OC(=O)C(C(C)=O)=C2O)cc1 : what is it?
### Response 16

### Prompt For CC(=O)Oc1ccc(N/C(C)=C2\C(=O)OC(=O)C(C(C)=O)=C2O)cc1 , what is its reported inhibition in vivo at 0.5 mg/kg?
### Response 41

----------
# key: entry, value: inhibition (INH)
tested on: Lung; test: Antiallergic activity in passively sensitized albino rat lungs assessed as inhibition of antigen-induced histamine release at 1 x 10^-6 M by fluorometric analysis relative to control; type: functional

Take a look at these entries with their results.
[[record]]
chemical_structure = "CC(=O)C1=C(O)/C(=C(\\C)Nc2ccc(O)c(N)c2)C(=O)OC1=O.Cl"
val = "61%"

[[record]]
chemical_structure = "CCC(=O)Nc1cc(N/C(C)=C2\\C(=O)OC(=O)C(C(C)=O)=C2O)ccc1O"
val = "66%"

[[record]]
chemical_structure = "CC(=O)Nc1cc(N/C(C)=C2\\C(=O)OC(=O)C(C(C)=O)=C2O)ccc1O"
val = "76%"

[[record]]
chemical_structure = "CC(=O)C1=C(O)/C(=C(\\C)Nc2ccc(NC(=O)C(C)C)cc2)C(=O)OC1=O"
val = "60%"


// switching to the query molecule
### Prompt Lab note: need inhibition (INH) for CC(=O)C1=C(O)/C(=C(\C)Nc2ccc(O)c(NC(=O)C(C)C)c2)C(=O)OC1=O on Lung, anyone have it?
### Response 78%
